Entries and their Population Tubulin-Different-Phenotype (%)
System: U2OS
assayProcedure: Multiplex assay against U2OS
Assay type: toxicity, cell-based
conditionLabel: human, 24 h, 1 µM, compound concentration 1 uM, replicate 1
metricName: Population Tubulin-Different-Phenotype (%)

{"compound": "CC(C)(C)c1ccc(S(=O)(=O)Nc2ccc(Cl)cc2C(=O)c2cc[n+]([O-])cc2)cc1", "experimentalResult": 4}
{"compound": "CSc1ccccc1N1CCN(CCCCCC(=O)NC2CCCc3ccccc32)CC1.Cl (centres undefined)", "experimentalResult": 75}
{"compound": "CNC[C@H](O)c1ccc(O)c(O)c1 [EPINEPHRINE]", "experimentalResult": 2}
{"compound": "CCOc1c2c(c(OCC)c3ncccc13)CN(c1ccc(CS(=O)(=O)NC(=O)Cc3ccccc3OC)cc1C)C2=O", "experimentalResult": 1}
{"compound": "O=C(NCCO)c1cccc(-c2cc(Nc3ccc(OC(F)(F)F)cc3)ncn2)c1", "experimentalResult": 2}
{"compound": "CN1CCN(c2nc3cc(C(F)(F)F)ccc3n3cccc23)CC1.O=C(O)/C=C\\C(=O)O.O=C(O)/C=C\\C(=O)O", "experimentalResult": 3}
{"compound": "Cc1nc2ccc(Oc3ccc(F)cc3)cc2c(=O)n1C[C@H]1CCCN(C(C)C)C1.Cl", "experimentalResult": 4}
{"compound": "Cc1ccc(F)cc1C(=O)Nc1ccc(C(=O)N2Cc3cccn3Cc3ccccc32)c(Cl)c1", "experimentalResult": 4}
{"compound": "O=S(=O)(c1ccccc1)c1cnc2c(N3CCNCC3)cccc2c1 [INTEPIRDINE]", "experimentalResult": 4}
